Reference source for all entries: PubChem BioAssay (NCI)

System: UACC-62 melanoma
Experiment: NCI-60 one-dose screen, 48 h (100 = growth as untreated, 0 = no growth, -100 = all killed)
Details: 10 µM unless noted
This is part of a sample that, as a whole, favours compounds with a hit. Of some 83,000 tested, about 20% had one in any assay.
Mark class 0 for growth values under 90%, and class 1 for everything at or above.

{"molecule": "O=C(Nc1ccc(-c2nc(-c3cccc(OCCN4CCOCC4)c3)c(-c3ccnc(Br)c3)[nH]2)cc1)c1ccccc1", "label_class": "class 0"}
{"molecule": "COc1cc(C(=O)c2cc(C)c3[nH]c4ccc(C)cc4c3c2C)cc(OC)c1OC", "label_class": "class 0"}
{"molecule": "COc1ccc(-c2cc(-c3ccc(Cl)cc3)c(C#N)c(=O)n2CCCCCC(=O)Nc2ccccc2N)cc1", "label_class": "class 0"}
{"molecule": "COc1cc2cc(Oc3ccc(NC(=O)Nc4cc(C(F)(F)F)cc(C(F)(F)F)c4)cc3)c(C)nc2cc1OCCN1CCOCC1", "label_class": "class 0"}
{"molecule": "COc1ccc(-c2nnc(COc3ccc(Cl)cc3Cl)o2)cc1OC", "label_class": "class 0"}
{"molecule": "Cc1[nH]c(C(=O)Nc2ccc(C(=O)N3CCNCC3)cc2OC(C)C)c(Cl)c1Cl", "label_class": "class 1"}
{"molecule": "C=C(C)[C@@H]1CC[C@]2(N=C=O)CC[C@]3(C)[C@H](CC[C@@H]4[C@@]5(C)Cc6c([nH]c7ccccc67)C(C)(C)[C@@H]5CC[C@]43C)[C@@H]12", "label_class": "class 1"}
{"molecule": "N#Cc1c(-c2ccc(Cl)cc2)nc2c(c(-c3ccccc3)nn2-c2ccccc2)c1-c1ccc(O)cc1", "label_class": "class 0"}
{"molecule": "NCCCNc1nc2ccccc2c2c(=O)c3cc(F)cc(F)c3sc12", "label_class": "class 1"}
{"molecule": "Brc1ccc2[nH]cc(-c3nc(-c4c[nH]c5ccncc45)cs3)c2c1", "label_class": "class 0"}
{"molecule": "c1ccc(-c2nc3nonc3nc2-c2ccccc2)cc1", "label_class": "class 0"}
{"molecule": "COc1cccc(/C=C2\\C=C(c3ccccc3)N(Cc3ccccc3)C2=O)c1", "label_class": "class 0"}
{"molecule": "COc1cc(Nc2cn[nH]c2-c2ccc(Cl)cc2)cc(OC)c1OC", "label_class": "class 0"}
{"molecule": "CN(C)CC#Cc1ccc2ncc(C#N)c(Nc3ccc(F)c(Cl)c3)c2c1", "label_class": "class 0"}
{"molecule": "CCN(CC)CCNC(=O)c1cn2ncnc(Oc3ccc(NC(=O)Nc4ccc(Cl)c(C(F)(F)F)c4)cc3)c2c1C", "label_class": "class 0"}
{"molecule": "CC(=O)CC(c1ccccc1)c1c(C)[nH]c2ccccc12 (centres undefined)", "label_class": "class 0"}
